These measurements were taken from ChEMBL document CHEMBL4028802.

- Species: Homo sapiens
- assay_details: Liver toxicity in human assessed as induction of drug-induced liver injury by measuring verified drug-induced liver injury concern status
observable: DILI_Concern

[Q] Reported DILI_Concern, molecule CN1C(=O)CN=C(c2ccccc2)c2cc(Cl)ccc21 [DIAZEPAM] : ____
[A] Ambiguous-Dili-Concern

[Q] What value of DILI_Concern has been recorded for this entry: COc1ccc(C[C@@H]2c3cc(OC)c(OC)cc3CC[N@+]2(C)CCC(=O)OCCCCCOC(=O)CC[N@@+]2(C)CCc3cc(OC)c(OC)cc3[C@H]2Cc2ccc(OC)c(OC)c2)cc1OC.O=S(=O)([O-])c1ccccc1.O=S(=O)([O-])c1ccccc1 [CISATRACURIUM BESYLATE]
[A] No-Dili-Concern

[Q] Name the reported DILI_Concern value associated with the molecule CCOC(=O)c1cncn1[C@H](C)c1ccccc1 [ETOMIDATE]
[A] No-Dili-Concern

[Q] Need DILI_Concern, item C=CC[C@@H]1/C=C(\C)C[C@H](C)C[C@H](OC)[C@H]2O[C@@](O)(C(=O)C(=O)N3CCCC[C@H]3C(=O)O[C@H](/C(C)=C/[C@@H]3CC[C@@H](O)[C@H](OC)C3)[C@H](C)[C@@H](O)CC1=O)[C@H](C)C[C@@H]2OC [TACROLIMUS ANHYDROUS]
[A] Less-Dili-Concern

[Q] Give its DILI_Concern value. Item: COc1cc2c(c(OC)c1OC)-c1ccc(OC)c(=O)cc1[C@@H](NC(C)=O)CC2 [COLCHICINE]
[A] Ambiguous-Dili-Concern

[Q] Endpoint output: DILI_Concern of CC(C)C[C@H]1C(=O)N2CCC[C@H]2[C@]2(O)O[C@](NC(=O)[C@@H]3C=C4c5cccc6[nH]c(Br)c(c56)C[C@H]4N(C)C3)(C(C)C)C(=O)N12 [BROMOCRIPTINE] . Value?
[A] Less-Dili-Concern

[Q] Entry CCCC(C)(COC(N)=O)COC(N)=O [MEPROBAMATE] has what DILI_Concern?
[A] No-Dili-Concern

[Q] // DILI_Concern lookup, key: C[C@@H]1C[C@H]2[C@@H]3CCC4=CC(=O)C=C[C@]4(C)[C@@]3(F)[C@@H](O)C[C@]2(C)[C@@]1(O)C(=O)CO [DEXAMETHASONE]
[A] Ambiguous-Dili-Concern

[Q] Sample O=C(c1ccc(OCCN2CCCCC2)cc1)c1c(-c2ccc(O)cc2)sc2cc(O)ccc12 [RALOXIFENE] — what was its DILI_Concern?
[A] No-Dili-Concern

[Q] Need DILI_Concern of COc1ccc(CCN(C)CCCC(C#N)(c2ccc(OC)c(OC)c2)C(C)C)cc1OC (centres undefined) , thanks.
[A] Less-Dili-Concern

Next:
[Q] What value of measured DILI_Concern is listed for Nc1nc(=O)n([C@@H]2CS[C@H](CO)O2)cc1F [EMTRICITABINE] ?
[A] Ambiguous-Dili-Concern

[Q] Requested field: DILI_Concern. Item: CC1CNc2c(cccc2S(=O)(=O)N[C@@H](CCCNC(=N)N)C(=O)N2CC[C@@H](C)C[C@@H]2C(=O)O)C1 (some centres undefined) [ARGATROBAN]
[A] No-Dili-Concern

[Q] DILI_Concern lookup needed for CO[C@@]1(NC(=O)Cc2cccs2)C(=O)N2C(C(=O)O)=C(COC(N)=O)CS[C@@H]21 [CEFOXITIN] , thanks.
[A] Ambiguous-Dili-Concern

[Q] Requested field: DILI_Concern. Item: N[C@@H]1CON=C1O [CYCLOSERINE]
[A] Ambiguous-Dili-Concern

[Q] # DILI_Concern lookup, item COc1cc2nc(N3CCN(C(=O)C4CCCO4)CC3)nc(N)c2cc1OC (centres undefined) [TERAZOSIN]
[A] No-Dili-Concern
